- MEASUREMENT PROTOCOL: inhibitors of HIV-1 Env-driven cell-cell fusion, primary screen, HeLa-JRFL effector, CEM21 target cells, luciferase (AID 651610)
- STUDY CONDITIONS: at 16.7 µM unless noted
Hit rate of the full screen: of about 360,000 compounds, about 3,900 (1.1%) were called active.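 The calls were made as follows: active = mean replicate inhibition score of at least 50 and every replicate individually at or above 50; inconclusive = only one of the two criteria met; inactive = mean below 50 and not all replicates reaching 50.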 What follows is part of a selection rich in actives, with near analogues and random picks from the rest.
Outcome codes: YES (active), NO (inactive)

>  <COMPOUND>
CC(Nc1ccc([N+](=O)[O-])cc1[N+](=O)[O-])c1ccccc1 (stereo unspecified)

>  <CAT>
NO

$$$$
>  <COMPOUND>
C[C@H]1CN([C@@H](C)CO)C(=O)Cc2cc(NC(=O)C3CC3)ccc2O[C@H]1CN(C)C(=O)Nc1ccc(C(F)(F)F)cc1

>  <CAT>
NO

$$$$
>  <COMPOUND>
C[C@H](CO)N1C[C@H](C)[C@H](CN(C)Cc2ccc(C(F)(F)F)cc2)OCCCC[C@H](C)Oc2ccc(NS(=O)(=O)c3ccc(Cl)cc3)cc2C1=O

>  <CAT>
NO

$$$$
>  <COMPOUND>
C[C@@H]1CCCCO[C@@H](CN(C)CC2CC2)[C@@H](C)CN([C@H](C)CO)C(=O)c2cc(NC(=O)C3CCCCC3)ccc2O1

>  <CAT>
NO

$$$$
>  <COMPOUND>
COc1cccc(NC(=O)N[C@@H]2CC[C@H](CC(=O)NCc3ccccn3)O[C@H]2CO)c1

>  <CAT>
NO

$$$$
>  <COMPOUND>
Cc1ccc(S(=O)(=O)Nc2ccc3ncccc3c2)cc1

>  <CAT>
YES

$$$$
>  <COMPOUND>
COC(=O)[C@]1(Cc2ccccc2)N[C@H](CN(C)S(=O)(=O)c2ccc(F)cc2)[C@@H]2C(=O)N(Cc3ccccc3)C(=O)[C@@H]21

>  <CAT>
NO

$$$$
>  <COMPOUND>
CN1C(=O)c2cc(NC(=O)c3cscn3)ccc2OC[C@H]2O[C@@H](CC(=O)NCC3CC3)CC[C@H]21

>  <CAT>
NO

$$$$
>  <COMPOUND>
CCCCn1c(SCC(=O)NCCc2ccc(OC)c(OC)c2)nc2c1c(=O)n(C)c(=O)n2C

>  <CAT>
YES

$$$$
>  <COMPOUND>
CCN1C[C@@H]2[C@@H]3C(=O)N(Cc4ccccc4)C(=O)[C@@H]3[C@](C)(C1=O)N2C(=O)c1ccc(C(C)(C)C)cc1

>  <CAT>
NO

$$$$
>  <COMPOUND>
C[C@@H]1CCCCO[C@@H](CN(C)Cc2ccc(C(F)(F)F)cc2)[C@H](C)CN([C@H](C)CO)C(=O)c2cc(NS(=O)(=O)c3ccc(F)cc3)ccc2O1

>  <CAT>
NO

$$$$
>  <COMPOUND>
C[C@H](CO)N1C[C@H](C)[C@@H](CN(C)Cc2ccc(Oc3ccccc3)cc2)Oc2ccc(NS(=O)(=O)c3ccc(F)cc3)cc2CC1=O

>  <CAT>
NO

$$$$
>  <COMPOUND>
O=C(O)c1cc([N+](=O)[O-])c(Nc2cccc3ccccc23)c([N+](=O)[O-])c1

>  <CAT>
NO

$$$$
>  <COMPOUND>
COc1ccc(NC(=O)Nc2ccc3c(c2)C(=O)N([C@H](C)CO)C[C@H](C)[C@H](CN(C)Cc2ccncc2)OCCCC[C@H](C)O3)cc1

>  <CAT>
YES

$$$$
>  <COMPOUND>
CC(C)NC(=O)N(C)C[C@@H]1Oc2ccc(NC(=O)Cn3cnnn3)cc2CC(=O)N([C@H](C)CO)C[C@H]1C

>  <CAT>
NO

$$$$
>  <COMPOUND>
CC[C@]1(C(=O)OC)[C@H]2C(=O)N(Cc3ccccc3)C(=O)[C@H]2[C@H]2CN=C(SCc3ccccc3)N21

>  <CAT>
YES

$$$$
>  <COMPOUND>
CC(=O)C1=C(C)N(Cc2ccc(Cl)cc2)C(=S)NC1c1ccc(F)cc1 (stereo unspecified)

>  <CAT>
YES

$$$$
>  <COMPOUND>
C/C=C/c1cnc2c(c1)C(=O)N([C@@H](C)CO)C[C@@H](C)[C@H](CN(C)C(=O)c1cnccn1)O2

>  <CAT>
NO

$$$$
>  <COMPOUND>
C[C@@H]1CN([C@H](C)CO)S(=O)(=O)c2ccc(C#CCN(C)C)cc2O[C@@H]1CN(C)C

>  <CAT>
NO

$$$$
>  <COMPOUND>
C/C=C/c1ccc2c(c1)O[C@H](CN(C)C(=O)C1CCCCC1)[C@@H](C)CN([C@@H](C)CO)S2(=O)=O

>  <CAT>
NO

$$$$
>  <COMPOUND>
COC(=O)C1=C(C)N(Cc2ccc(F)cc2)C(=S)NC1c1cccc(Cl)c1 (stereo unspecified)

>  <CAT>
NO

$$$$
>  <COMPOUND>
C[C@@H]1CCCCO[C@@H](CN(C)C(=O)Nc2cccc3ccccc23)[C@H](C)CN([C@H](C)CO)C(=O)c2cc(NS(C)(=O)=O)ccc2O1

>  <CAT>
NO

$$$$
>  <COMPOUND>
O=C(NC(Nc1nc2ccc([N+](=O)[O-])cc2s1)(C(F)(F)F)C(F)(F)F)c1ccccc1

>  <CAT>
YES

$$$$
>  <COMPOUND>
C[C@H](CO)N1C[C@H](C)[C@@H](CN(C)C(=O)Nc2cccc3ccccc23)OCCCC[C@H](C)Oc2ccc(N(C)C)cc2C1=O

>  <CAT>
YES

$$$$
>  <COMPOUND>
N#C[C@@H]1[C@@H](c2ccc(-c3ccccc3F)cc2)[C@@H](CO)N1C(=O)C1CC1

>  <CAT>
NO

$$$$
>  <COMPOUND>
CCCCCCCCn1c2c(c(=N)c3c1CCC3)CCCC2

>  <CAT>
YES

$$$$

Just for reference, PubChem BioAssay AID651610 is where these values come from.
